Measurement Protocol: Pharmacokinetic study in rats
Type: in vivo, Sprague-Dawley (SD) rats
Recorded Conditions: female, Sprague-Dawley, rat, in vivo, oral gavage, 15 mg/Kg, plasma
Protocol: In this test experiment, a pharmacokinetic study of the compound in rats was conducted. Twelve healthy adult female Sprague-Dawley (SD) rats (purchased from Beijing Vital River Laboratory Animal Technology Co., Ltd., China) with an average body weight of about 180-220 g were selected, and divided into four groups (n=3 per group). Two groups were administered via tail vein injection, while the other two groups were administered via oral gavage. […]
Value Type: half-life (h)
Give the quantity in h, number only.

input: Look up half-life for this molecule: Cc1c(CN(C)C(=O)/C=C/c2cnc3c(c2)C2CC2(N)C(=O)N3)oc2c(C)cccc12 (stereo not shown) [Compound 1b]
output: 2.57
